Assign inhibition at 10 µg/mL to each entry below.
- assayed_system: horse serum butyrylcholinesterase (Equus caballus)
- Construct: horse serum butyrylcholinesterase (EC 3.1.1.8, Sigma, St. Louis, MO, USA); purchased Sigma, St. Louis, MO, USA; host or cells: horse serum
- Sequence (P81908 whole entry): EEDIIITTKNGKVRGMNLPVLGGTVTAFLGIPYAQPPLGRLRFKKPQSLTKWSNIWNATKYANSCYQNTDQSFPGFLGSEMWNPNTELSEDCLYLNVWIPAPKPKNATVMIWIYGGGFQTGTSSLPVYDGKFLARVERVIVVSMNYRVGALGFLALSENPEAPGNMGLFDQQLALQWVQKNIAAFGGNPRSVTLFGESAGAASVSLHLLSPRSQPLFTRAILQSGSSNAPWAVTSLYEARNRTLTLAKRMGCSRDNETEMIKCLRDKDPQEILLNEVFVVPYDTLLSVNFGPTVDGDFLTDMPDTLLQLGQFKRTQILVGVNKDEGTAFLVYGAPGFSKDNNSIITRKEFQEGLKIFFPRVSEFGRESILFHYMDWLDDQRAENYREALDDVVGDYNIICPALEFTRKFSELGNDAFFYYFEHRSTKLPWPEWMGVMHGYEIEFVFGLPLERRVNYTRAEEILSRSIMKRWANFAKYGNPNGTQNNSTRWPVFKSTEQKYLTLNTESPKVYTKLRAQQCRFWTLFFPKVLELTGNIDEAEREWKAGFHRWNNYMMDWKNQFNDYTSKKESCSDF
- measurement_description: biochemical
- test_conditions: at 10.0 µg·mL^−1; read-out: % Inhibition ± S.D. at 10.0 µg·mL^−1 BChE
State just the number; it will be interpreted in %.

What measured inhibition at 10 µg/mL goes with CC(=O)O[C@@H]1CCC(C)(C)c2ccc3c(c21)C(=O)C(=O)C1=C3OC[C@@H]1C [Compound 1, (1R,15R)-1-acetoxycryptotanshinone] ?
95.9

What does the data say about its inhibition at 10 µg/mL? Entry: Cc1cc2c(cc(O)c1=O)C1(CO)CCCC(C)(C)C1CC2 (stereo not shown)
98.6

Query: inhibition at 10 µg/mL; subject: C[C@H]1COC2=C1C(=O)C(=O)c1cc3c(cc12)C(C)(C)CCC3=O
87.3

Which inhibition at 10 µg/mL is listed for CC(=O)O[C@@H]1CCC(C)(C)c2ccc3c(c21)C(=O)C(=O)c1c(C)coc1-3 ?
85.3

----------
- assayed_system: Electric eel acetylcholinesterase (Electrophorus electricus)
- Sequence (O42275 24-633): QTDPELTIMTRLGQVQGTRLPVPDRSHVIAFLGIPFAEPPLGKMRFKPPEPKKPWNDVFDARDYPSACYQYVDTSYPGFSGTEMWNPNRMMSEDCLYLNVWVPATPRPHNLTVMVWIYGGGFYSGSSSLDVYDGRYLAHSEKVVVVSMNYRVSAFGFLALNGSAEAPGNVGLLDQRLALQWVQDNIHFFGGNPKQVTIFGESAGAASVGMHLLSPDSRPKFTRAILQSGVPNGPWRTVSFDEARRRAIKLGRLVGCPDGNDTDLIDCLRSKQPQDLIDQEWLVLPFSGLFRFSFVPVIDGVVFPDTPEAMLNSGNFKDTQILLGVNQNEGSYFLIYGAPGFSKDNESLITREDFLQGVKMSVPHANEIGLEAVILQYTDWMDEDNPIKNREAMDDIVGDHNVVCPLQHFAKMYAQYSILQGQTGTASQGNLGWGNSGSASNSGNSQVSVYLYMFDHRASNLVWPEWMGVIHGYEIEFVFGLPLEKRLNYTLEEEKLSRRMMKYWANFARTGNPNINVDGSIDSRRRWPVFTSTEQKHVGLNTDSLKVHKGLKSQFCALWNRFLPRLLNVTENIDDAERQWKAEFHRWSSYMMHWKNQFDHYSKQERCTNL
observation_type: pIC50
The quantity pIC50 is defined as the negative base-10 logarithm of the molar concentration.

Given the compound C[C@H]1COC2=C1C(=O)C(=O)c1cc3c(cc12)C(C)(C)CCC3=O , what is its reported pIC50?
3.48
